System: K4 kissing-loop RNA reporter
Assay: apparent KD of K4 kissing-loop reporter; higher = weaker reporter binding
Conditions: Eterna round: R107; input ligand: tryptophan 2.4 mM
Readout: apparent KD of K4 kissing-loop reporter (nM)
Please give a number only; it is taken to be in nM.

AAACAUUGGUCGGAUACCAGCUGAUCGGAAACGAUCUUGCUGGAGUGAUGUUCCAAGUAAAGCCCUUGGCAGCCGACCGAUGAAA [MAT - Same State Theophlline B - Mod of Eli - D20] : 85.8
AAAUUCUUUUUUUUAUUUAAGUUUUCAGAAGGAGCGUGGUAGUACACAGGUAGGUCGCUGAAUUUUGGGCUAGUGAUGUUAGUUA [whbob_SS_Arginine_A_sa114] : 160

Now consider a different sequence.
Ask: # input sequence: UUUCGUCUCUGAGGAUAUCAGACGAGAGUGAUGUUCUCCCAAAGCCCAGUGAUGUUGGAUGCUAUCUGAGAAGGCAGUGGGCGAA [Same State FMN B GF 12] ; wanted: its apparent KD of K4 kissing-loop reporter
Result: 508

* * *

Tested on: K4 kissing-loop RNA reporter;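 further: bound reporter read as fluorescence of individual clusters on recovered sequencing chips by microscopy, with normalized cluster intensities fitted with a binding model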
Experiment: apparent KD of K4 kissing-loop reporter; higher = weaker reporter binding
Conditions: Eterna round: R107; input ligand: tryptophan 2.4 mM
Readout: apparent KD of K4 kissing-loop reporter

GGUAGCAUGGCGGCCGCCACUCGCAUCACAGGCCAUUAACCGCCCUCGUAAAGUGAUGUUUUACAGAGGACCGGGCCAUGCUACC : 0.195 µM
GUGGCACGAAAGUGCCACGCAUCCUCUCCCUAGGAUAUCUGGAAACAGAGAAGGAGGUCAUGAGUGAUGUUCAUCCAGAGGAUGC : 0.491 µM
CCAUCCGAGUCGGCCGCCACUUUGAGUGAUGUUUGGAGUCUGAGUCAACAUAAAUACUUAGUUUAAAGGACCGGGACUUCGGAUG [theeternabot_exclusion_KL_Trp_B_7] : 0.363 µM
AGAGCGGUCGAAGGAUAUGAGACAACCAACGGUGAGUGAUGUUUGCCGAGUAAACCUCUAGUUGCGUCAGAAGGUCGGCUCAGUC [theeternabot_sameState_KL_FMN_B_25] : 0.52 µM

Ask: # input sequence: GCAUCCAUGGCAGGAUAUAGGUUCGUGGAGUGAUGUUCCAUAGCCCGAGUGAUGUUCGUUAUCCACCUAGAAGGGCCAUGGAUGC [whbob_Ex_FMNB__2th212] ; wanted: its apparent KD of K4 kissing-loop reporter
Result: 0.21 µM

Ask: Please answer likewise for AUUCACCUGUCGGCCGCCACUGCGUUAGCAGUAUCGGGCAGAAACUUCGCAGUGAUGUUGCGACUCAGGACCGGGACGUUGAGGA [theeternabot_exclusion_KL_Trp_B_29]
Result: 0.504 µM

* * *

Test system: MS2 coat protein
Assay: apparent KD of MS2 coat protein; designed switch direction (-1 OFF switch, 1 ON switch): -1; higher = weaker reporter binding
Conditions: Eterna round: R95; input ligand: microRNA oligo, concentration not stated
Documented apparent KD of MS2 coat protein across a set of sequences
A complete answer gives the number followed by the unit.

Solved cases below.
CAUGUGUAAGGAUAUGACAAUGGUAUCGAAAGAUACCAUUGUCAGAAGGUACAUGAGGAUCACCCAUGUGGAUC [Ex4-3: 18] (puzzle: Exclusion 4) : 199 nM
AUAAUAAAGGAGGAUAUCGUAACGGAAACGUUACGAGAAGGUCUAACAUGAGGAUCACCCAUGUUCCUCAAAUA [Mat - Exclusion 6 - Eli Mod - D50] (puzzle: Exclusion 6) : 35.4 nM

Now consider a different sequence.
Ask: # input sequence: GGAUCGUAUGUCAGGAUAUGCCACUGGAUACAGUGGUAGAAGGGACAUGAGGAUCACCCAUGUCCUACCGAUCC [Fiskers BMX 4 - 50] (puzzle: Brourd's mod of Exclusion 4) ; wanted: its apparent KD of MS2 coat protein
Result: 12.4 nM

FYI, the data here is from the supplement of paper PMC9170038.
